System: NCI-H23 lung
Experiment: NCI-60 one-dose screen, 48 h (100 = growth as untreated, 0 = no growth, -100 = all killed)
Details: 10 µM unless noted
Compounds without any hit were thinned out: in the full panel of roughly 83,000, 20% have a hit.
We'd kindly ask you to apply these growth classes: bottom end: < 70%; midrange: ≥ 70% and < 90%; top end: ≥ 90%

{"COMPOUND": "CC1(C)N=C(N)N=C(N)N1c1ccc(OCC(=O)Nc2ccccc2)c(Cl)c1", "GROUP LABEL": "bottom end"}
{"COMPOUND": "CCC1S/C(=N\\N=C(/C)c2cc3ccccc3o2)N(c2ccccc2)C1=O (stereo not drawn)", "GROUP LABEL": "top end"}
{"COMPOUND": "COc1cc(CN(c2ccc(Cl)cc2)C2OC(=O)c3ccccc32)cc(OC)c1OC (stereo not drawn)", "GROUP LABEL": "midrange"}
{"COMPOUND": "COc1ccc(NC(=O)COCCOCCNC[C@@H]2C(=O)O[C@H]3[C@H]2CC/C(COC(=O)OC/C2=C/CC[C@@]4(C)O[C@H]4[C@H]4OC(=O)[C@@H](CN(C)C)[C@@H]4CC2)=C\\CC[C@@]2(C)O[C@@H]32)c(O)c1C(N)=O", "GROUP LABEL": "midrange"}
{"COMPOUND": "O=C(Nc1ccc(-n2ccc3c(NC(=O)c4ccccc4)ncnc32)cc1)c1cccc(C(F)(F)F)c1", "GROUP LABEL": "midrange"}
{"COMPOUND": "C/C(=N/O)c1ccc(NC(=O)Cn2nc(-c3ccc(Cl)cc3)nc2N)cc1", "GROUP LABEL": "top end"}
{"COMPOUND": "[2H]c1nc(Nc2ncc(F)c(-c3cc(F)c4nc(C)n(C(C)C)c4c3)n2)c([2H])c([2H])c1CN1CCN(CC)CC1", "GROUP LABEL": "bottom end"}
{"COMPOUND": "O=C(NCCNc1nccc(-c2c(-c3cccc(O)c3)nc3sccn23)n1)c1ccc(N2CCOCC2)c(C(F)(F)F)c1", "GROUP LABEL": "midrange"}
{"COMPOUND": "Cc1cn(C2CC(N=[N+]=[N-])C(COP(=O)(O)OP(=O)(O)OP(=O)(O)O)O2)c(=O)[nH]c1=O (stereo not drawn)", "GROUP LABEL": "top end"}
{"COMPOUND": "O=C(c1ccccc1)[C@H]1[C@@H]2CCCN2[C@]2(C(=O)Nc3ccc(F)cc32)[C@]12C(=O)Nc1ccccc12", "GROUP LABEL": "top end"}
{"COMPOUND": "CN1CCN(Cn2nc(-c3cc(F)c(Cl)cc3Cl)n(/N=C/c3ccc(N(C)C)cc3)c2=S)CC1", "GROUP LABEL": "top end"}
{"COMPOUND": "CCCCOc1nc2ccc(Cl)cc2cc1/C=C/C(=O)/C=C/c1ccc(OC)cc1", "GROUP LABEL": "top end"}
{"COMPOUND": "O=C(O)c1cccc2oc(-c3ccccc3O)nc12", "GROUP LABEL": "bottom end"}
{"COMPOUND": "COc1cc(NC(=O)C#Cc2ccccc2)c(OC)cc1Cl", "GROUP LABEL": "bottom end"}
{"COMPOUND": "CCOC(=O)c1noc2c1CCc1cn(Cc3cc(OC)cc(OC)c3)cc1-2", "GROUP LABEL": "top end"}
{"COMPOUND": "CCOC(=O)C1CSC(C)(C(=O)OCC)N1 (stereo not drawn)", "GROUP LABEL": "top end"}
{"COMPOUND": "COc1ccc(/C=N/C2=NNC(C)(c3ccccc3O)N2C(Cc2c[nH]c3ccccc23)C(=O)O)cc1 (stereo not drawn)", "GROUP LABEL": "bottom end"}
